Target: human FXa (Homo sapiens, UniProt P00742)
Construct: purchased Enzyme Research Labolatories, Inc
Sequence (P00742 235-488 limits assumed): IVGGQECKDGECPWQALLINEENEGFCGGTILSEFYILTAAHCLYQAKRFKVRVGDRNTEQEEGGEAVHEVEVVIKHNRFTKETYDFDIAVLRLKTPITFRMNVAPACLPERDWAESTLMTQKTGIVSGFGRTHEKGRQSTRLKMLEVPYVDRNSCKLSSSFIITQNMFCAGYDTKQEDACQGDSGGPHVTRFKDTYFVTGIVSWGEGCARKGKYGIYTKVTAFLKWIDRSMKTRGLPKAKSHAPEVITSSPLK
Sequence (P00742 41-179 partner limits assumed): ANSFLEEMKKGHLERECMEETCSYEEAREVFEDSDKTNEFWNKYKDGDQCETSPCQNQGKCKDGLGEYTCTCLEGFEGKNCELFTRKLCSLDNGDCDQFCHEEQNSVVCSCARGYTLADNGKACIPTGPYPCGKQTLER
Assay: Determination of human FXa-inhibiting effect (IC50 value)
Type: biochemical
Counter-ions that a name gives are not always drawn.
Observable: IC50 (nM)
Numbers only, in nM.

Exercise: Give reported IC50 value for CN1CCc2nc(C(=O)N[C@H]3CCC[C@@H]3NC(=O)c3cc4cc(Cl)ccc4[nH]3)sc2C1 (relative stereo) [Example 3, hydrochloride]
Key: 86

* * *

Give melting point for every item shown.
Where a name gives a salt, the structure may show the parent alone.

Please review the entries below; each comes with its answer.
COCCN1CC[C@H](NC(=O)c2cc3cc(Cl)ccc3[nH]2)[C@H](NC(=O)c2nc3c(s2)CN(C)CC3)C1 (relative stereo) (as salt: hydrochloride) | 238 to 242 °C (dec.)
CN1CCc2nc(C(=O)N[C@@H]3CNC[C@H]3NC(=O)c3cc4cc(Cl)ccc4[nH]3)sc2C1 (as salt: hydrochloride) | 248 to 250 °C (dec.)
CCOC(=O)N1CC[C@H](NC(=O)c2cc3cc(Cl)ccc3[nH]2)[C@H](NC(=O)c2nc3c(s2)CN(C)CC3)C1 (relative stereo) (as salt: hydrochloride) | 215 to 225 °C (dec.)
CN1CCc2nc(C(=O)N[C@@H]3CN(C(=O)C(C)(C)CO)CC[C@@H]3NC(=O)c3cc4cc(Cl)ccc4[nH]3)sc2C1 (relative stereo) | 220 °C (dec.)
CN1CCc2nc(C(=O)N[C@@H]3CN(C(=O)C(C)(C)C)CC[C@@H]3NC(=O)c3cc4cc(Cl)ccc4[nH]3)sc2C1 (relative stereo) (as salt: hydrochloride) | 250 to 255 °C (dec.)

Hi there! I need melting point for each item below, if you can.
1. CN1CCc2nc(C(=O)N[C@@H]3CS(=O)(=O)CC[C@H]3NC(=O)c3cc4cc(F)ccc4[nH]3)sc2C1 (relative stereo) (as salt: hydrochloride)
2. CN1CCc2nc(C(=O)N[C@@H]3CN(S(C)(=O)=O)CC[C@@H]3NC(=O)c3cc4cc(F)ccc4[nH]3)sc2C1 (relative stereo) (as salt: hydrochloride)

Key:
236 to 241 °C
216 to 250 °C (dec.)

Dear colleague, could you send me melting point for each of the items below? Thanks.
1. CCOC(=O)N1CC[C@@H](NC(=O)c2nc3c(s2)CN(C)CC3)[C@@H](NC(=O)c2cc3cc(Cl)ccc3[nH]2)C1 (relative stereo) (as salt: hydrochloride)
2. COCC(=O)N1CC[C@H](NC(=O)c2cc3cc(F)ccc3[nH]2)[C@H](NC(=O)c2nc3c(s2)CN(C)CC3)C1 (relative stereo) (as salt: hydrochloride)
3. CC(C)C(=O)N1CC[C@H](NC(=O)c2cc3cc(Cl)ccc3[nH]2)[C@H](NC(=O)c2nc3c(s2)CN(C)CC3)C1 (relative stereo) (as salt: hydrochloride)

Key:
1. 213 to 225 °C (dec.)
2. 190 to 208 °C (dec.)
3. 266 to 272 °C (dec.)

Okay, here is my list. What is melting point for each of these?
1. CC(=O)OC(C)(C)C(=O)N1CC[C@H](NC(=O)c2cc3cc(Cl)ccc3[nH]2)[C@H](NC(=O)c2nc3c(s2)CN(C)CC3)C1 (relative stereo)
2. CC(=O)N1CC[C@@H](NC(=O)c2nc3c(s2)CN(C)CC3)[C@@H](NC(=O)c2cc3cc(Cl)ccc3[nH]2)C1 (relative stereo) (as salt: hydrochloride)
3. CN1CCc2nc(C(=O)N[C@@H]3CN(C(=O)C4CC4)CC[C@@H]3NC(=O)c3cc4cc(Cl)ccc4[nH]3)sc2C1 (relative stereo) (as salt: hydrochloride)
4. CN1CCc2nc(C(=O)N[C@@H]3CCS(=O)(=O)C[C@@H]3NC(=O)c3cc4cc(Cl)ccc4[nH]3)sc2C1 (relative stereo) (as salt: hydrochloride)
5. COCC(=O)N1CC[C@H](NC(=O)c2cc3cc(Cl)ccc3[nH]2)[C@H](NC(=O)c2nc3c(s2)CN(C)CC3)C1 (as salt: hydrochloride) [Example 171]
6. CN1CCc2nc(C(=O)N[C@@H]3CN(CCF)CC[C@@H]3NC(=O)c3cc4cc(Cl)ccc4[nH]3)sc2C1 (relative stereo) (as salt: hydrochloride) [Example 168, dihydrochloride]

Key:
1. 190 °C (dec.)
2. 225 to 250 °C (dec.)
3. 280 to 286 °C (dec.)
4. 242 to 247 °C
5. 207 to 220 °C (dec.)
6. 228 to 233 °C (dec.)

I'm hoping you can list melting point for every compound here, please.
1. CN1CCc2nc(C(=O)N[C@@H]3CN(C(=O)c4ccccc4)CC[C@@H]3NC(=O)c3cc4cc(Cl)ccc4[nH]3)sc2C1 (relative stereo) (as salt: hydrochloride)
2. CN1CCc2nc(C(=O)N[C@@H]3CN(C(=O)C(F)(F)F)CC[C@@H]3NC(=O)c3cc4cc(Cl)ccc4[nH]3)sc2C1 (relative stereo) (as salt: hydrochloride)
3. COC1CC(C(=O)N2CC[C@H](NC(=O)c3cc4cc(Cl)ccc4[nH]3)[C@H](NC(=O)c3nc4c(s3)CN(C)CC4)C2)C1 (relative stereo) (as salt: hydrochloride)
4. CN1CCc2nc(C(=O)N[C@@H]3CN(C(=O)OC(C)(C)C)C[C@H]3NC(=O)c3cc4cc(Cl)ccc4[nH]3)sc2C1

Key:
["215 to 225 °C (dec.)", "262 to 267 °C (dec.)", "191 °C (dec.)", "190 to 192 °C"]
